assay: Metabolic stability in human liver microsomes assessed as parent compound remaining after 15 mins; assay type: ADME, Microsome; conditions: read-out: Stability
Class (by remaining at 0.25 h) -- A (below 60%), B (60% to below 80%), C (80% or more)

Example entries and their recorded answers appear below.
COc1cnc(NC(=O)c2ccc(CN3C(=O)c4ccc(Cl)cc4NC(=O)[C@H]3Cc3ccccn3)cc2Cl)cn1 C
O=C(c1ccc(CN2C(=O)c3ccc(Cl)cc3NC(=O)[C@H]2Cc2ccccn2)cc1)c1cccn2ccnc12 A
O=C(Nc1ccc(F)cn1)c1ccc(CN2C(=O)c3ccc(Cl)cc3NC(=O)[C@H]2Cc2ccccn2)cc1Cl C
Cc1cccc(C(=O)c2ccc(CN3C(=O)c4ccc(Cl)cc4NC(=O)[C@H]3Cc3ccccn3)cc2)n1 A
Cn1cnc(C(=O)c2ccc(CN3C(=O)c4ccc(Cl)cc4NC(=O)[C@H]3Cc3ccccn3)cc2)c1 A
O=C(c1ccc(CN2C(=O)c3ccc(Cl)cc3NC(=O)[C@H]2Cc2ccccn2)cc1)c1cccn2ncnc12 A
Cc1cc(CN2C(=O)c3ccc(Cl)cc3NC(=O)[C@H]2Cc2ccccn2)ccc1C(=O)Nc1ccc(F)cn1 C
Cn1cc(C(=O)c2ccc(CN3C(=O)c4ccc(Cl)cc4NC(=O)[C@H]3Cc3ccccn3)cc2)c2ncccc21 B

Consider now this further molecule.
Band of `COc1cc(CN2C(=O)c3ccc(Cl)cc3NC(=O)[C@H]2Cc2ccccn2)ccc1C(=O)Nc1ccc(C)cn1` ? B

----------
assay: AUC (0 to infinity) in CD-1 mouse at 1 mg/kg, iv; type: ADME, organism-based; design: dose 1 mg/kg, time infinity, route intravenous; details: in vivo
recordedEndpoint: AUC(0-inf) (ng·h/mL)
The figure you give is taken to be in ng·h/mL; do not add the unit.

Return AUC(0-inf) (reported value) for this molecule: `O=C(Nc1ccc(C(F)(F)F)cn1)c1ccc(CN2C(=O)c3ccc(Cl)cc3NC(=O)[C@H]2Cc2ccccn2)cc1Cl` 592

----------
assay: Elimination half life in hamster at 10 mg/kg, po; assay type: ADME, organism-based; settings: cricetinae, in vivo, read-out: beta t1/2 (converted)
recordedEndpoint: half-life (h)
The figure you give is taken to be in h; do not add the unit.

Return half-life (reported value) for this molecule: `O=C(Nc1ccc(C(F)(F)F)cn1)c1ccc(CN2C(=O)c3ccc(Cl)cc3NC(=O)[C@H]2Cc2ccccn2)cc1Cl` 10

----------
biological target: Toxin B (Clostridioides difficile, UniProt P18177); assay: Inhibition of C-terminal 6-His tagged recombinant Clostridium difficile toxin B glucosyltransferase domain assessed as reduction in UDP-glucose hydrolysis activity using UDP-glucose substrate and ADP Alexa633 tracer incubated for 3 hrs by fluorescence polarization assay
Sequence (P18177 whole entry, the tested form may be a part): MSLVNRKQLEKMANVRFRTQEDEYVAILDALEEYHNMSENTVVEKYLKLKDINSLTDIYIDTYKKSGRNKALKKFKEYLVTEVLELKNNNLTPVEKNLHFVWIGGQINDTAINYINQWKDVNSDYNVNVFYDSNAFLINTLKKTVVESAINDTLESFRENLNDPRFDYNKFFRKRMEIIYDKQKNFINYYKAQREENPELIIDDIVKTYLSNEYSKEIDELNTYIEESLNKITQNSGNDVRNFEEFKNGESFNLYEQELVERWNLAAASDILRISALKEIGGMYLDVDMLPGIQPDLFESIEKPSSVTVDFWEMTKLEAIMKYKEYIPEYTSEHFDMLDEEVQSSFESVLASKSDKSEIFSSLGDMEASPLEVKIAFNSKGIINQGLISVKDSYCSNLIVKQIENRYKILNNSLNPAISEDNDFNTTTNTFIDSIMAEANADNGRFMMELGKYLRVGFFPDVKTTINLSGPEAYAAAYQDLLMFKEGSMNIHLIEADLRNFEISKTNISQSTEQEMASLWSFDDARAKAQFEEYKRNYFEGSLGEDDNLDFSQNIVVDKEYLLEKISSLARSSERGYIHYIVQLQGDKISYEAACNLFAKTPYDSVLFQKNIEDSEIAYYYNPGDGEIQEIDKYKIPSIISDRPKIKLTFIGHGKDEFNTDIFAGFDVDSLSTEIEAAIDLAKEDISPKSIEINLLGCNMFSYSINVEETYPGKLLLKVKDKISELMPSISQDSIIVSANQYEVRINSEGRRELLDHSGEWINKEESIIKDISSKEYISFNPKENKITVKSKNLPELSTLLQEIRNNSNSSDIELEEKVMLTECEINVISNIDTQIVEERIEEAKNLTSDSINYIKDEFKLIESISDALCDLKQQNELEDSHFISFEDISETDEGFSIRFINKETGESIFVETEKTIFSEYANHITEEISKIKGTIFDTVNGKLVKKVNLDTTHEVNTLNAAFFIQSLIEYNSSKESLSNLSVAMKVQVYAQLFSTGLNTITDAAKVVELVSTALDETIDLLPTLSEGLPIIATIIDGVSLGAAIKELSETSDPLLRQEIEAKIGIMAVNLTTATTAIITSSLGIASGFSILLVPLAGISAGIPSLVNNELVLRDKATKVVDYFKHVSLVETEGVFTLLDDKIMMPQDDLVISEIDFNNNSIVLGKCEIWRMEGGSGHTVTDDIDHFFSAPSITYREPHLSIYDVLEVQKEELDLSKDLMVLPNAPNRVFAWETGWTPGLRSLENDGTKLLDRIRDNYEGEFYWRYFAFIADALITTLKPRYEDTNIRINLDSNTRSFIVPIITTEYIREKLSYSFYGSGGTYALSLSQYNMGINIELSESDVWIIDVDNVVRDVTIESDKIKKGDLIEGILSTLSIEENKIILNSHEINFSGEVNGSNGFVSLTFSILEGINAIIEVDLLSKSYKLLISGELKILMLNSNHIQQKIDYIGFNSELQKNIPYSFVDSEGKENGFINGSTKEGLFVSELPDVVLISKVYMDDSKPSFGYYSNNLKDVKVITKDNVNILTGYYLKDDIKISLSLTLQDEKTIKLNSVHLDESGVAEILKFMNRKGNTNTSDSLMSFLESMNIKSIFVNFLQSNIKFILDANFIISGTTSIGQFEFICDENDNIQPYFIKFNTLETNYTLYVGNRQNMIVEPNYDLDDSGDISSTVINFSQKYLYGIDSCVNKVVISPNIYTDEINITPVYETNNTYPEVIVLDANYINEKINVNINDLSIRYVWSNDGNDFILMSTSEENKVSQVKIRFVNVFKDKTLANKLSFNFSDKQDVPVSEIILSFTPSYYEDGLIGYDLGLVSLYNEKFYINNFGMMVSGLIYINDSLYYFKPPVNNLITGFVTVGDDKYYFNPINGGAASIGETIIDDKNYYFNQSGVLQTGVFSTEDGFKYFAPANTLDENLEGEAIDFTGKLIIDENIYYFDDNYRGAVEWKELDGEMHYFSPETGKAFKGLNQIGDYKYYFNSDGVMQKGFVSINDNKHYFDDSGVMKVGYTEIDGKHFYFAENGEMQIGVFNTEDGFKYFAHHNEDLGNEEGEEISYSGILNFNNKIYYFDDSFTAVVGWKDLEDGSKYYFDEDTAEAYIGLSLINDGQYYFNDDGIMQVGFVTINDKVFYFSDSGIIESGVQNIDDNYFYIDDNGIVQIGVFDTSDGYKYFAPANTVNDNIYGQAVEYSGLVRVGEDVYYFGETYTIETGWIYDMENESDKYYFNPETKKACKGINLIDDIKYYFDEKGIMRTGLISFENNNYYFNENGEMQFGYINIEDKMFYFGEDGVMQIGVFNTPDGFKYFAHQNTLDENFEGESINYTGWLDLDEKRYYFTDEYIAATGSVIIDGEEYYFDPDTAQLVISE
Form field: IC50 (one value per entry).
The figure you give is taken to be in nM; do not add the unit.

These solved cases illustrate the format of a correct answer.
N#Cc1ccc(NC(=O)c2ccc(CN3C(=O)c4ccc(Cl)cc4NC(=O)[C@H]3Cc3ccccn3)cc2Cl)nc1 8
Cc1cc(CN2C(=O)c3ccc(Cl)cc3NC(=O)[C@H]2Cc2ccccn2)ccc1C(=O)Nc1ccc(C#N)cn1 3
O=C(O)c1ccc(CN2C(=O)c3ccc(Cl)cc3NC(=O)[C@H]2Cc2ccccn2)cc1 180

Return IC50 (reported value) for this compound: `O=C(c1ccc(CN2C(=O)c3ccc(Cl)cc3NC(=O)[C@H]2Cc2ccccn2)cc1)c1c[nH]c2cccnc12` 2

----------
experiment: Metabolic stability in mouse liver microsomes assessed as parent compound remaining after 15 mins; type: ADME, Microsome; details: read-out: Stability
recordedEndpoint: remaining at 0.25 h
Reply with a number, then the unit it belongs to.

These solved cases illustrate the format of a correct answer.
COc1ccc(NC(=O)c2ccc(CN3C(=O)c4ccc(Cl)cc4NC(=O)[C@H]3Cc3ccccn3)cc2Cl)nc1 71%
Cc1ccc(C(=O)c2ccc(CN3C(=O)c4ccc(Cl)cc4NC(=O)[C@H]3Cc3ccccn3)cc2)nc1 68%
COc1ccc(NC(=O)c2ccc(CN3C(=O)c4ccc(Cl)cc4NC(=O)[C@H]3Cc3ccccn3)cc2OC)nc1 71%
COc1cc(CN2C(=O)c3ccc(Cl)cc3NC(=O)[C@H]2Cc2ccccn2)ccc1C(=O)Nc1ccc(F)cn1 67%
Cc1cccc(C(=O)c2ccc(CN3C(=O)c4ccc(Cl)cc4NC(=O)[C@H]3Cc3ccccn3)cc2)n1 3%
COc1cnc(NC(=O)c2ccc(CN3C(=O)c4ccc(Cl)cc4NC(=O)[C@H]3Cc3ccccn3)cc2C)nc1 39%

Return remaining at 0.25 h (reported value) for this compound: `COc1cnc(NC(=O)c2ccc(CN3C(=O)c4ccc(Cl)cc4NC(=O)[C@H]3Cc3ccccn3)cc2Cl)cn1` 68%

Return remaining at 0.25 h (reported value) for this compound: `O=C(Nc1ccc(C(F)(F)F)cn1)c1ccc(CN2C(=O)c3ccc(Cl)cc3NC(=O)[C@H]2Cc2ccccn2)cc1Cl` 92%

Return remaining at 0.25 h (reported value) for this compound: `O=C(Nc1ccc(F)cn1)c1ccc(CN2C(=O)c3ccc(Cl)cc3NC(=O)[C@H]2Cc2ccccn2)cc1Cl` 69%

Return remaining at 0.25 h (reported value) for this compound: `Cc1cc(CN2C(=O)c3ccc(Cl)cc3NC(=O)[C@H]2Cc2ccccn2)ccc1C(=O)Nc1ccc(C#N)cn1` 70%

Return remaining at 0.25 h (reported value) for this compound: `N#Cc1ccc(NC(=O)c2ccc(CN3C(=O)c4ccc(Cl)cc4NC(=O)[C@H]3Cc3ccccn3)cc2Cl)nc1` 84%

Return remaining at 0.25 h (reported value) for this compound: `O=C(c1ccc(CN2C(=O)c3ccc(Cl)cc3NC(=O)[C@H]2Cc2ccccn2)cc1)c1c[nH]c2cccnc12` 93%

Return remaining at 0.25 h (reported value) for this compound: `Cc1cc(CN2C(=O)c3ccc(Cl)cc3NC(=O)[C@H]2Cc2ccccn2)ccc1C(=O)Nc1ccc(C(F)(F)F)cn1` 99%

Return remaining at 0.25 h (reported value) for this compound: `Cn1cc(C(=O)c2ccc(CN3C(=O)c4ccc(Cl)cc4NC(=O)[C@H]3Cc3ccccn3)cc2)c2ncccc21` 76%

Return remaining at 0.25 h (reported value) for this compound: `COc1ccc(NC(=O)c2ccc(CN3C(=O)c4ccc(Cl)cc4NC(=O)[C@H]3Cc3ccccn3)cc2C)nc1` 51%

Return remaining at 0.25 h (reported value) for this compound: `Cc1ccc(NC(=O)c2ccc(CN3C(=O)c4ccc(Cl)cc4NC(=O)[C@H]3Cc3ccccn3)cc2Cl)nc1` 57%

Return remaining at 0.25 h (reported value) for this compound: `Cc1cnc(NC(=O)c2ccc(CN3C(=O)c4ccc(Cl)cc4NC(=O)[C@H]3Cc3ccccn3)cc2C)nc1` 44%

Return remaining at 0.25 h (reported value) for this compound: `O=C(c1ccc(CN2C(=O)c3ccc(Cl)cc3NC(=O)[C@H]2Cc2ccccn2)cc1)c1cccn2ncnc12` 44%

Return remaining at 0.25 h (reported value) for this compound: `O=C(c1ccc(CN2C(=O)c3ccc(Cl)cc3NC(=O)[C@H]2Cc2ccccn2)cc1)c1ccccn1` 79%

Return remaining at 0.25 h (reported value) for this compound: `COc1cnc(NC(=O)c2ccc(CN3C(=O)c4ccc(Cl)cc4NC(=O)[C@H]3Cc3ccccn3)cc2Cl)nc1` 38%

Return remaining at 0.25 h (reported value) for this compound: `Cc1ccnc(C(=O)c2ccc(CN3C(=O)c4ccc(Cl)cc4NC(=O)[C@H]3Cc3ccccn3)cc2)c1` 48%

Return remaining at 0.25 h (reported value) for this compound: `COc1cc(CN2C(=O)c3ccc(Cl)cc3NC(=O)[C@H]2Cc2ccccn2)ccc1C(=O)Nc1ccc(C(F)(F)F)cn1` 83%

Return remaining at 0.25 h (reported value) for this compound: `Cn1ccnc1C(=O)c1ccc(CN2C(=O)c3ccc(Cl)cc3NC(=O)[C@H]2Cc2ccccn2)cc1` 33%

Return remaining at 0.25 h (reported value) for this compound: `O=C(c1ccc(CN2C(=O)c3ccc(Cl)cc3NC(=O)[C@H]2Cc2ccccn2)cc1)c1cccn2ccnc12` 27%

----------
experiment: Metabolic stability in human liver microsomes assessed as parent compound remaining after 15 mins; type: ADME, Microsome; conditions: read-out: Stability
Form field: remaining at 0.25 h (one value per entry).
The figure you give is taken to be in %; do not add the unit.

Cc1cnc(NC(=O)c2ccc(CN3C(=O)c4ccc(Cl)cc4NC(=O)[C@H]3Cc3ccccn3)cc2Cl)cn1 81
COc1ccc(NC(=O)c2ccc(CN3C(=O)c4ccc(Cl)cc4NC(=O)[C@H]3Cc3ccccn3)cc2OC)nc1 78
Cc1ccc(NC(=O)c2ccc(CN3C(=O)c4ccc(Cl)cc4NC(=O)[C@H]3Cc3ccccn3)cc2C)nc1 61

Return remaining at 0.25 h (reported value) for this molecule: `COc1ccc(NC(=O)c2ccc(CN3C(=O)c4ccc(Cl)cc4NC(=O)[C@H]3Cc3ccccn3)cc2Cl)nc1` 100

Return remaining at 0.25 h (reported value) for this molecule: `O=C(Nc1ccc(C(F)(F)F)cn1)c1ccc(CN2C(=O)c3ccc(Cl)cc3NC(=O)[C@H]2Cc2ccccn2)cc1Cl` 94

Return remaining at 0.25 h (reported value) for this molecule: `Cc1cnc(NC(=O)c2ccc(CN3C(=O)c4ccc(Cl)cc4NC(=O)[C@H]3Cc3ccccn3)cc2Cl)nc1` 79

Return remaining at 0.25 h (reported value) for this molecule: `Cc1ccc(C(=O)c2ccc(CN3C(=O)c4ccc(Cl)cc4NC(=O)[C@H]3Cc3ccccn3)cc2)nc1` 57
